targetDesc: bovine plasma amine oxidase (BPAO) (Bos taurus, UniProt Q29437)
Sequence (Q29437 17-762): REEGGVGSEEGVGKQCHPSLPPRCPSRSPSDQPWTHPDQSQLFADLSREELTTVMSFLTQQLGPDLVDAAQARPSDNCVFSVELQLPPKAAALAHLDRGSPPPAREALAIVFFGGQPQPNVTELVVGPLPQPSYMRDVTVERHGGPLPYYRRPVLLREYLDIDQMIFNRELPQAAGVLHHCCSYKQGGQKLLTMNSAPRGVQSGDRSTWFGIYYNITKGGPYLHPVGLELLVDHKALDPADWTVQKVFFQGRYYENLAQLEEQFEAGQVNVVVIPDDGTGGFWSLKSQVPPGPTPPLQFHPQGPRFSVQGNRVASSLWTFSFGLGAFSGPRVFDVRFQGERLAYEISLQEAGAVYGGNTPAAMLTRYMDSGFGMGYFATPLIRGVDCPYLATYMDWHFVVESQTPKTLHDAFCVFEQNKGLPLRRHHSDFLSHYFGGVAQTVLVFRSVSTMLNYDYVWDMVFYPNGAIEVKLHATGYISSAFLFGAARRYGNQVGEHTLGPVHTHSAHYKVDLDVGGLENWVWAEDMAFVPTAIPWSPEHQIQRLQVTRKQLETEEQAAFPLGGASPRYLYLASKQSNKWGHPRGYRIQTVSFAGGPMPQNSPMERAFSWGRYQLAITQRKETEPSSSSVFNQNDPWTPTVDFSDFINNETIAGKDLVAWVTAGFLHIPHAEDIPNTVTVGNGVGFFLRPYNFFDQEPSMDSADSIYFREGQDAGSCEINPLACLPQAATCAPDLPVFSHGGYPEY
measurementDescription: Substrate activity with BPAO
Assay type: biochemical
conditionNotes: kcat/Km relative to BA = 1; fluorescence spectrophotometry
Listed here: items and their measured relative activity.

| compound | relative activity |
| --- | --- |
| CN(C)CCOc1ccc2cc(CN)ccc2c1.Cl.Cl [compound 11] | 3.1×10^3 |
| CNCCOc1ccc2cc(CN)ccc2c1.Cl.Cl [compound 10] | 1.5×10^3 |
| C[N+](C)(C)CCOc1ccc2cc(CN)ccc2c1.Cl.[Cl-] [compound 12] | 5.4×10^3 |
| COc1ccc2cc(CN)ccc2c1.Cl [compound 1] | 2.2 |

// query relative activity value for entry Cl.Cl.NCCOc1ccc2cc(CN)ccc2c1 [compound 9]
2.9×10^2
